Molecular target: DNA-dependent protein kinase (DNA-PK) (Homo sapiens)
Construct: endogenous in cells; host or cells: Jurkat (ATCC TIB-152, clone E6-1) and Ramos (ATCC CRL-1596), 1:1 lysate mix
Sequence (P78527 whole entry): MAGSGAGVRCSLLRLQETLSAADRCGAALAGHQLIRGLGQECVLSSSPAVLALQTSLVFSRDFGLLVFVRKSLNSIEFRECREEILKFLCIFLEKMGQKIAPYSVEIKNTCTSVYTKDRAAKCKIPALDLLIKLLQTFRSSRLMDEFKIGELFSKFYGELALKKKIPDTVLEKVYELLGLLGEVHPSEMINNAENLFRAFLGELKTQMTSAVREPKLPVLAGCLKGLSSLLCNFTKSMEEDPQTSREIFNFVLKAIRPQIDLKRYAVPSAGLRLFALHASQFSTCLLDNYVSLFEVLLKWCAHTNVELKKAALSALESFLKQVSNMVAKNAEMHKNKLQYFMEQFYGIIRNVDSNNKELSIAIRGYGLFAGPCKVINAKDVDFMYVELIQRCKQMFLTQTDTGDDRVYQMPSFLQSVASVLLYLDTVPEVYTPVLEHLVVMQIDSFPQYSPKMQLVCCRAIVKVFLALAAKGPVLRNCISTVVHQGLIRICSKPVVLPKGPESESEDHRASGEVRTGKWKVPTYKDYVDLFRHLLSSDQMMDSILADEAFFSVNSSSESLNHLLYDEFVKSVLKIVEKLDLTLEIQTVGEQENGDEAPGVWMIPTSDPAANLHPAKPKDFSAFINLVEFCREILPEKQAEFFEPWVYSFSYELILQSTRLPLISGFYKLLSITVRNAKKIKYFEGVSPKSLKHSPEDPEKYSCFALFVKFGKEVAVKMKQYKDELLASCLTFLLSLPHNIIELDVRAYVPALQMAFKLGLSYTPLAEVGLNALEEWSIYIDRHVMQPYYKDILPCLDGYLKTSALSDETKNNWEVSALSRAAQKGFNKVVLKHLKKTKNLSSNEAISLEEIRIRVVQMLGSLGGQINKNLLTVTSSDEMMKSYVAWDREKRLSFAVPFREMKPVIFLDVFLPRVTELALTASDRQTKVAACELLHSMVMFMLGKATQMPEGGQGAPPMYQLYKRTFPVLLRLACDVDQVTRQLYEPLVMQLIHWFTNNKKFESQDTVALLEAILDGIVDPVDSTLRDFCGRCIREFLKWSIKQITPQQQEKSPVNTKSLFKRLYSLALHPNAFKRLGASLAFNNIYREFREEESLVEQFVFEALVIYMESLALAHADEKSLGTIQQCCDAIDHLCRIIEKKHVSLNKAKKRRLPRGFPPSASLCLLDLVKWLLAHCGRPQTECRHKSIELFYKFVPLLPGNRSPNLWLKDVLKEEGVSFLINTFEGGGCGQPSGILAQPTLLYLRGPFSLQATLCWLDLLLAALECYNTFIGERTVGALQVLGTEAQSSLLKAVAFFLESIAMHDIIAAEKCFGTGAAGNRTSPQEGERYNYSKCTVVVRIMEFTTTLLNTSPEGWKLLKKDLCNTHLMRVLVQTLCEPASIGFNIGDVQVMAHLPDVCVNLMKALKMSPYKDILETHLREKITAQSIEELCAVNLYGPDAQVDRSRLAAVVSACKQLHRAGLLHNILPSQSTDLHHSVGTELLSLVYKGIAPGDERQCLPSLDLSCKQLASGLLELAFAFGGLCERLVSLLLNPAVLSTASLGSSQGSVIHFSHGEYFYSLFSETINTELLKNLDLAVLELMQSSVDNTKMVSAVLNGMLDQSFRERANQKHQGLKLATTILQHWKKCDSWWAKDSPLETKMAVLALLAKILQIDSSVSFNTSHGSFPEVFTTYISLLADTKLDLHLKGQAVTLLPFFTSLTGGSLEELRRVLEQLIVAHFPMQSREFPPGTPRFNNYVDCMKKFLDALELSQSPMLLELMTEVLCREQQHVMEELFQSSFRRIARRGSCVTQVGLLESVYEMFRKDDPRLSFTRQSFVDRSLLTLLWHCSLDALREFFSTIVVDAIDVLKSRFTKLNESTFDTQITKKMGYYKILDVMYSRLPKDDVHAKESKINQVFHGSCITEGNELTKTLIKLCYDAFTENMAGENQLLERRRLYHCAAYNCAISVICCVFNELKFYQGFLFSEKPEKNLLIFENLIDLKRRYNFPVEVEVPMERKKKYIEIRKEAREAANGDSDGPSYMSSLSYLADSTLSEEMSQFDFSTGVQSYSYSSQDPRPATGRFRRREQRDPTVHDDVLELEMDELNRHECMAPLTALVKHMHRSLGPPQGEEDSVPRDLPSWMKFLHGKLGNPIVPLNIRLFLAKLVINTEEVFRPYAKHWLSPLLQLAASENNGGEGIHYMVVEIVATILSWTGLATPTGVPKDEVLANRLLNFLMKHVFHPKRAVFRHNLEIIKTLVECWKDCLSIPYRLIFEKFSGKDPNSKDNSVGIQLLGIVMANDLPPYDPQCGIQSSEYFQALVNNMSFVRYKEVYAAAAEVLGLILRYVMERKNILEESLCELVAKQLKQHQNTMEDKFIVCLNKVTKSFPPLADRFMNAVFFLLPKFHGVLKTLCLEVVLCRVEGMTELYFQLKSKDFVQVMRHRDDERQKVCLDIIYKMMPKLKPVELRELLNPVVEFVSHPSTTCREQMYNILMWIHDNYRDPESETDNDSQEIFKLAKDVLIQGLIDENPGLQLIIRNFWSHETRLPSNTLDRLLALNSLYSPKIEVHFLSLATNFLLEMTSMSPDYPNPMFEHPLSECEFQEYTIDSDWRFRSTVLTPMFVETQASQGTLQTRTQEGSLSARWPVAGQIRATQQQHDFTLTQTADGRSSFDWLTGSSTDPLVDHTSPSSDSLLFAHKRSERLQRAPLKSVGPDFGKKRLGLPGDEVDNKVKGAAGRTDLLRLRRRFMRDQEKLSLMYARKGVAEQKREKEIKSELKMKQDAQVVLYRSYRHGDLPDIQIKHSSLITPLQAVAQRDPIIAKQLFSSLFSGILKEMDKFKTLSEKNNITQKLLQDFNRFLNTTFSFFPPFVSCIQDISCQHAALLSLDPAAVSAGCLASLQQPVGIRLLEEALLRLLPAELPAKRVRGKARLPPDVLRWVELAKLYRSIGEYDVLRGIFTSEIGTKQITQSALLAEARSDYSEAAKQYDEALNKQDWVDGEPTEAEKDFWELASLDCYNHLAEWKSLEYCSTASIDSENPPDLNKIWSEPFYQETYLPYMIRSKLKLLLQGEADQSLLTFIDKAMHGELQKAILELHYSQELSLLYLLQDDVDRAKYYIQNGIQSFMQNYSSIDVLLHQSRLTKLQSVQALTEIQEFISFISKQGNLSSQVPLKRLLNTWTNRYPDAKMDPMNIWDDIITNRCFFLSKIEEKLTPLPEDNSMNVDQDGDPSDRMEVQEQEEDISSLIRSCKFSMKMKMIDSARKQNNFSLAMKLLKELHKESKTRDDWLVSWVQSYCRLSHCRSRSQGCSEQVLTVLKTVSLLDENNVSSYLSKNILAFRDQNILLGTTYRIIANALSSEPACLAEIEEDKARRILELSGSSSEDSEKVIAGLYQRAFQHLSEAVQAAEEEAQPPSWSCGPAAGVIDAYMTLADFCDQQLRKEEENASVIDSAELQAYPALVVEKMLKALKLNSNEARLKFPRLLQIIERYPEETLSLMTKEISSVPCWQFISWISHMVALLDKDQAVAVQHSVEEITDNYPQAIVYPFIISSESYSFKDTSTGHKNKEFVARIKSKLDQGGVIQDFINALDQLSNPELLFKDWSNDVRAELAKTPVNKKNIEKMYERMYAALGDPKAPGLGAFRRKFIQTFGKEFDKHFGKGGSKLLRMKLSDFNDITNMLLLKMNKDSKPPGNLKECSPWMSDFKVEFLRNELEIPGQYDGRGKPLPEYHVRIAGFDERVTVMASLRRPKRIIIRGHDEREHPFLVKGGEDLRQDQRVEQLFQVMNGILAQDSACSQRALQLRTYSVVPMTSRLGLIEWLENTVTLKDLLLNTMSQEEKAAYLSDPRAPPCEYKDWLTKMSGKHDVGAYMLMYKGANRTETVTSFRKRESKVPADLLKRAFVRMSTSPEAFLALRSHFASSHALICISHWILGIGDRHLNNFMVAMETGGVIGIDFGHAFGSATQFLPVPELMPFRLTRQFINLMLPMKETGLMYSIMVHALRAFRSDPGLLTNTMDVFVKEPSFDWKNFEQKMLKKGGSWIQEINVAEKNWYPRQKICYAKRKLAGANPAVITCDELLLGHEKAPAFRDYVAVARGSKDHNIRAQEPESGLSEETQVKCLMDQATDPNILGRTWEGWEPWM
Test: kinobeads assay, DNA-PK
Format: binding
Conditions: 1:1 mix of Jurkat and Ramos cell lysates, read-out: Inhibition values (IC50 in μM) as determined in the kinobeads assay, DNA-PK
Method: The compounds of the present invention as described were tested in the mTOR kinobeads assay as described below. […] Bound proteins were then eluted and the presence of mTOR, PI3Kα, PI3Kβ, PI3Kγ, PI3Kδ and DNA-dependent protein kinase (DNA-PK) was detected and quantified using a specific antibody in a dot blot procedure and the Odyssey infrared detection system. Dose response curves for individual kinases were generated and IC50 values calculated. […]
readout kind: IC50

As a guide, the following entries are already answered.
compound="CC(C)N1Cc2nc(N3CCOC[C@@H]3C)nc(-c3ccc(NC(=O)NCCO)cc3)c2C1 [Example 34, 2,2,2-trifluoroacetate]" readout_kind=IC50 recorded_result="> 100 µM"
compound=CC(C)N1Cc2nc(N3CCOC[C@@H]3C)nc(-c3ccc(NC(=O)NC4CC4)cc3)c2C1 readout_kind=IC50 recorded_result="> 100 µM"
compound=C[C@H]1COCCN1c1nc2c(c(-c3ccc(NC(=O)NCCO)cc3)n1)CNC2 readout_kind=IC50 recorded_result="10 to 100 µM"
compound="CC(C)CN1Cc2nc(N3CC4CCC(C3)O4)nc(-c3ccc(NC(=O)NCCO)cc3)c2C1 [Example 48, 2,2,2-trifluoroacetate]" readout_kind=IC50 recorded_result="> 100 µM"
compound=O=C(Nc1ccc(-c2nc(N3CCOCC3)nc3c2CNC3)cc1)NC1CC1 readout_kind=IC50 recorded_result="10 to 100 µM"

Q. Given C[C@H]1COCCN1c1nc2c(c(-c3ccc(NC(=O)NC4CC4)cc3)n1)CN(C(=O)CN1CCOCC1)C2 [Example 47, 2,2,2-trifluoroacetate] , state its recorded IC50.
A. > 100 µM

Q. Given `C[C@H]1COCCN1c1nc2c(c(-c3ccc(NC(=O)NCCO)cc3)n1)CN(S(C)(=O)=O)C2` , state its recorded IC50.
A. > 100 µM
